test: Growth cytotoxicity in CEM cells; type: cell-based; conditions: human, read-out: 50% Inhibitory Concentration IC50, Cytotoxicity, Growth (CEM cells)
assay_endpoint: CC50

Task: Give CC50 for Clc1cc2nc(Cl)c(C3C=CCO3)n2cc1Cl (racemic)
Output: > 100 µM

Task: Give CC50 for `OC[C@@H]1C=C[C@H](c2c(Cl)nc3cc(Cl)c(Cl)cn23)O1`
Output: > 100 µM

====

Examples of compounds with documented CC50 follow.
test: in vitro; type: cell-based, human; settings: human, hff cells

Task: Give CC50 for OC[C@@H]1C=C[C@H](c2c(Cl)nc3cc(Cl)c(Cl)cn23)O1 [Compound 76]
Output: 100 µM

Task: Give CC50 for Clc1cn2cc(Cl)c(Cl)cc2n1 [Compound 16, 2,6,7-Trichloro-imidazo[1,2-a]pyridine]
Output: > 100 µM

Task: Give CC50 for O[C@@H]1[C@@H](c2c(Cl)nc3cc(Cl)c(Cl)cn23)OC[C@@H]1O [Compound +28]
Output: > 100 µM

Task: Give CC50 for O[C@@H]1[C@H](O)CO[C@@H]1c1c(Cl)nc2cc(Cl)c(Cl)cn12 [Compound +29]
Output: > 100 µM

Cited source: patent US6214801A
